assay: Displacement of ethidium from poly[d(A-T)]-poly[d(A-T)] DNA by fluorimetric method
# note: boundary value 0.2 µM maps to n; C50 below it maps to y

Check out these entries, answers already filled in.
For this compound, is C50 lower than 0.2 µM? C[n+]1cccc(NC(=O)c2ccc(NC(=O)c3ccc(C(=O)Nc4ccc(NC(=N)NC(=N)N)cc4)cc3)cc2)c1.I.[I-]
n

For this compound, is C50 lower than 0.2 µM? C[n+]1ccc(Nc2ccc(NC(=O)/C=C/c3ccc(/C=C/C(=O)Nc4ccc(Nc5cc[n+](C)cc5)cc4)cc3)cc2)cc1.Cc1ccc(S(=O)(=O)[O-])cc1.Cc1ccc(S(=O)(=O)[O-])cc1
y

For this compound, is C50 lower than 0.2 µM? C[n+]1ccc(Nc2ccc(NC(=O)c3ccc(/C=C/C4=NCCCN4)cc3)cc2)c2cc(N)ccc21.Cc1ccc(S(=O)(=O)O)cc1.Cc1ccc(S(=O)(=O)[O-])cc1
n

For this compound, is C50 lower than 0.2 µM? C[n+]1cc(-c2ccc(NC(=O)c3ccc(Nc4cc[n+](C)c5ccccc45)cc3)cc2)c(N)nc1N.Cc1ccc(S(=O)(=O)[O-])cc1.Cc1ccc(S(=O)(=O)[O-])cc1
n

For this compound, is C50 lower than 0.2 µM? CCCCC[n+]1cccc(NC(=O)c2ccc(NC(=O)c3ccc(C(=O)Nc4ccc(C(=O)Nc5ccc[n+](CCCCC)c5)cc4)cc3)cc2)c1.Cc1ccc(S(=O)(=O)[O-])cc1.Cc1ccc(S(=O)(=O)[O-])cc1
n

---
For this compound, is C50 lower than 0.2 µM? CCC[n+]1cccc(NC(=O)c2ccc(NC(=O)c3ccc(C(=O)Nc4ccc(C(=O)Nc5ccc[n+](CCC)c5)c(N)c4)c(N)c3)cc2N)c1.Cc1ccc(S(=O)(=O)[O-])cc1.Cc1ccc(S(=O)(=O)[O-])cc1
y

For this compound, is C50 lower than 0.2 µM? C[n+]1cccc(-c2ccc(NC(=O)c3ccc(C(=O)Nc4ccc(-c5ccc(-c6ccc(-c7ccc[n+](C)c7)cc6)cc5)cc4)cc3)cc2)c1.Cc1ccc(S(=O)(=O)[O-])cc1.Cc1ccc(S(=O)(=O)[O-])cc1
n

For this compound, is C50 lower than 0.2 µM? C[n+]1ccc(Nc2ccc(C(=O)Nc3ccc(Nc4cc[n+](C)c5ccccc45)cc3)cc2)cc1.Cc1ccc(S(=O)(=O)[O-])cc1.Cc1ccc(S(=O)(=O)[O-])cc1
n

For this compound, is C50 lower than 0.2 µM? COc1cccc2c(Nc3ccc(C(=O)Nc4ccc(Nc5cc[n+](C)cc5)cc4)cc3)cc[n+](C)c12.[Br-].[Br-]
y

For this compound, is C50 lower than 0.2 µM? C[n+]1ccc(Nc2ccc(NC(=O)c3ccc(Nc4cc[n+](C)c5c(Cl)cccc45)cc3)cc2)cc1.Cc1ccc(S(=O)(=O)[O-])cc1.Cc1ccc(S(=O)(=O)[O-])cc1
n

For this compound, is C50 lower than 0.2 µM? C[n+]1cccc(-c2ccc(NC(=O)/C=C/c3ccc(C(=O)Nc4ccc(-c5ccc(-c6ccc(-c7ccc[n+](C)c7)cc6)cc5)cc4)cc3)cc2)c1.Cc1ccc(S(=O)(=O)[O-])cc1.Cc1ccc(S(=O)(=O)[O-])cc1
y
